Sourced from PubChem BioAssay AID2060502

Tested on: 885724-159-R-J1-PDC complex spheroid viability;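 also: spheroids exposed to agents for seven days before readout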
MEASUREMENT DESCRIPTION: Anticancer human tumor 885724-159-R-J1-PDC patient-derived pancreatic adenocarcinoma cell line growth inhibition [GQUAD]
CONDITION INFO: second compound 3.16 µM; first compound 3.16 µM; stronger effect = lower value
Please note: viability, T/C exactly at 70% is Criterion not met. Only values below 70% get Criterion met.

{"columns": ["COMPOUND", "TARGET UNDER TEST", "ANSWER LABEL"],
 "data": [
  ["Nc1ccn(C2OC(CO)C(O)C2(F)F)c(=O)n1 (stereo unspecified) + CN(C)c1ccc(Nc2c3ccc(NC(=O)CCN4CCCC4)cc3nc3cc(NC(=O)CCN4CCCC4)ccc23)cc1", "885724-159-R-J1-PDC complex spheroid viability", "Criterion met"],
  ["CCCS(=O)(=O)Nc1ccc(F)c(C(=O)c2c[nH]c3ncc(-c4ccc(Cl)cc4)cc23)c1F + Cc1[nH]c2ccc(F)cc2c1-c1nc2c3cccnc3c3ncccc3c2[nH]1", "885724-159-R-J1-PDC complex spheroid viability", "Criterion met"],
  ["COc1ncnc(C2CC2)c1-c1ncc2cnn(Cc3ccc(-c4nc(C(F)(F)F)cn4C(C)C)cc3)c2n1 + CN(C)c1ccc(Nc2c3ccc(NC(=O)CCN4CCCC4)cc3nc3cc(NC(=O)CCN4CCCC4)ccc23)cc1", "885724-159-R-J1-PDC complex spheroid viability", "Criterion not met"],
  ["C=CC(=O)N1CCN(c2nc(=O)n(-c3c(C)ccnc3C(C)C)c3nc(-c4c(O)cccc4F)c(F)cc23)C(C)C1 (stereo unspecified) + Cc1cnc(CNC(=O)c2c(=O)c3ccc(N4CCCN(C)CC4)nc3n3c2sc2ccccc23)cn1", "885724-159-R-J1-PDC complex spheroid viability", "Criterion not met"]
]}

Query string: Lab note: confirm whether the reported viability, T/C for this compound is below 70%, equality not counting. compound: CC(C)n1c(=O)n(C)c2cnc3cc(F)c(-c4ccc(OCCCN5CCCCC5)nc4)cc3c21 + CN(C)c1ccc(Nc2c3ccc(NC(=O)CCN4CCCC4)cc3nc3cc(NC(=O)CCN4CCCC4)ccc23)cc1
Result string: Criterion met

Query string: Lab note: confirm whether the reported viability, T/C for this compound is below 70%, equality not counting. compound: CC(C)(O)C1CCC(Nc2ccc3ncc(-c4cccc(C(F)(F)F)c4)n3n2)CC1 (stereo unspecified) + Cc1cnc(CNC(=O)c2c(=O)c3ccc(N4CCCN(C)CC4)nc3n3c2sc2ccccc23)cn1
Result string: Criterion met
